Reference source for all entries: patent US20240336683A1

# Study target: T1, human Siglec15-Fc fusion protein (human, UniProt Q6ZMC9 20-263)
# T1 construct: Bought protein (Acro #SG5-H5253 is named for the selection); also called recombinant Siglec 15-Fc fusion protein (Acro #SG5-H5253); human Siglec15-Fc protein; not shown: Fc part of the bought fusion protein
# T1 sequence (looked up): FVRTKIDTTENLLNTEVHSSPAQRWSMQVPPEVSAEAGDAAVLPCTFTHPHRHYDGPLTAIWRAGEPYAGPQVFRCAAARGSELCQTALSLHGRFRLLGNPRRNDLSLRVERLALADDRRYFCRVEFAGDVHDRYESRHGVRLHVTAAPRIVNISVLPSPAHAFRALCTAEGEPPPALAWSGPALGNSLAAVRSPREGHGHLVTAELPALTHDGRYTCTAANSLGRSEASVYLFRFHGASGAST
# Test: SPR Biacore T200; Siglec15-Fc captured on Protein A chip, scFv as analyte
# Protocol: Kinetic analysis of anti-Siglec15 scFvs were assessed by SPR technology with Biacore T200. The assay was run with Biacore T200 control software version 2.0. Protein A sensor chip was used to capture Fc fusion protein in the assay. […] The kinetics of scFvs binding to Siglec 15 protein was analyzed with Biacore T200 evaluation software version 3.0. […]
Attribute measured: koff

Illustrative cases are given below, each with its answer.
{"columns": ["Binder", "Value measured"],
 "data": [
  ["2019EP47-A02 scFv (scFv, V domains shown, Tested as a single-chain scFv made in E. coli with a C-terminal flag and 6x His tag) VH: EVQLVQSGGGVVQPGRSLRLSCAASGFTFSSYAMHWVRQAPGKGLEWVAVISYDGSNKYYADSVKGRFTISRDNSKNTLYLQMNSLRAEDTAVYYCARSRYSSSLRRYYGMDVWGQGTTVTVSS VL: AIQLTQSPSSLSASVGDRVTITCQATHDIANYLNWYQQKPGKAPKLLIYAASNLETGVPSRFSGSGSGTDFTFAISSLQPEDIAVYYCQQYDNLPLTFGGGTKVEIK", "0.00149 s⁻¹"],
  ["2020EP083-G11 scFv (scFv, V domains shown, Tested as a single-chain scFv made in E. coli with a C-terminal flag and 6x His tag) VH: EVQLVESGGGLVEPGGSLRLSCAASGFTFSSYSMSWVRQAPGKGLEWVGRIKSETDGGTTDYAGPAKGKFIISRNDAENTVSLQMNSLKFEDTAVYHCTTDSSSSWFSYSFDNWGQETLVTVSS VL: EIVMTQSPATLSVSPGERATLSCRASQNVNSNLAWYQQKTGQAPRLLIFGASTRATGIPARFSGSGSGTEFTLTIGSLQSEDFAVYYCQQYNNWPPTFGGWTKVEIK", "0.000356 s⁻¹"]
]}

# lookup: koff of 2019EP47-A10 scFv (scFv, V domains shown, Tested as a single-chain scFv made in E. coli with a C-terminal flag and 6x His tag) VH: QMQLVQSGGGVVQPGRSLRLSCAASGFTFSSYGMHWVRQAPGKGLEWVAVISYDGSNKYYADSVKDRFTISRDNSKNTLYLQMNSLRAEDTAVYYCAKDIVGDSGSYPIYYYYGMDVWGQGTTVTVSS VL: SQSALTQPHSVSESPGKTVTISCTRSSGSIASNYVQWYQQRPGSAPSTVIYEDNQRPSGVPDRFSGSVDISSNSASLTISGLQTEDEADYYCQSYDNDNMVFGGGTKLTVL
6.02e-05 s⁻¹
